# Tested on: firefly luciferase (FLuc)
# assay procedure: normalised percent inhibition of luminescence (vs positive and negative controls); higher = stronger inhibition
# measurement setup: metal salt concentration 0.001 mM; 100 mM HEPES buffer
Give normalised percent inhibition for every item shown.
The answer should read as a number with its unit following.

Report normalised percent inhibition for O=[N+]([O-])[O-].O=[N+]([O-])[O-].[Pb+2] [lead(II) nitrate] tested on firefly luciferase (FLuc).
-1.03%

Please answer likewise for [Cl][Sn][Cl] [tin(II) chloride]
-45.1%

Please answer likewise for [Cl][Pt-2]([Cl])([Cl])[Cl].[K+].[K+] [potassium tetrachloroplatinate(II)]
12.9%

Please answer likewise for CC#N.CC#N.CC#N.CC#N.F[B-](F)(F)F.[Cu+] [tetrakis(acetonitrile)copper(I) tetrafluoroborate]
100%

Please answer likewise for O=[N+]([O-])[O-].O=[N+]([O-])[O-].O=[N+]([O-])[O-].[Ga+3] [gallium(III) nitrate]
-39.5%

Please answer likewise for [Cl][Fe][Cl] [iron(II) chloride]
-45.9%

Please answer likewise for [Cl][Fe]([Cl])[Cl] [iron(III) chloride]
-41.7%

Please answer likewise for O=[N+]([O-])[O-].O=[N+]([O-])[O-].[Cd+2] [cadmium nitrate]
33.8%

Please answer likewise for O=S(=O)([O-])[O-].[Fe+2] [iron(II) sulfate]
25.9%
